Assignment: determine reported IC50 for the given molecules.
Target: Serine/threonine-protein kinase pim-1 (Homo sapiens, UniProt P11309)
Sequence (P11309 whole entry): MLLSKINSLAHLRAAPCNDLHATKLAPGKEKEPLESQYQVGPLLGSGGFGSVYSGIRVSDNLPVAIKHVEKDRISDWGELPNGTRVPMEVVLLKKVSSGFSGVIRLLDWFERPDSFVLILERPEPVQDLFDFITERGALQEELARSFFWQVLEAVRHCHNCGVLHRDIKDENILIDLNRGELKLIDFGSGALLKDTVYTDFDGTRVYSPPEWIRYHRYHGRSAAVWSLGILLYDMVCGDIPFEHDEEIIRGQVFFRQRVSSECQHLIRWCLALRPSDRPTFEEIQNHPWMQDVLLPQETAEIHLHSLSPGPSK
Test: Inhibition of recombinant Pim1 (unknown origin) by electrochemiluminescence assay
I only need the number, in nM, no unit after it.

[in] // lookup IC50 | system=Serine/threonine-protein kinase pim-1 (Homo sapiens, UniProt P11309) | key= `N[C@H]1C[C@@H](F)CN(c2ccncc2Nc2ncc3ccc(-c4c(F)cccc4F)nn23)C1`
[out] 0.78

[in] // lookup IC50 | system=Serine/threonine-protein kinase pim-1 (Homo sapiens, UniProt P11309) | key= `N[C@H]1CCCN(c2sncc2Nc2ncc3ccc(-c4c(F)cccc4F)nn23)C1`
[out] 56

[in] // lookup IC50 | system=Serine/threonine-protein kinase pim-1 (Homo sapiens, UniProt P11309) | key= `N[C@H]1CCCN(c2ccncc2Nc2ncc3ccc(-c4ccc(Cl)cc4Cl)nn23)C1`
[out] 1.8

----------
Test: Intrinsic clearance in human liver microsomes at 1 uM after 30 mins by LC-MS HRMS analysis
Assay type: ADME
Conditions: read-out: CLH
Assignment: determine reported microsomal CLint at 1 µM for the given compounds.

[in] Value lookup for microsomal CLint at 1 µM; key = `C[C@@H]1CCN(c2ccncc2Nc2ncc3ccc(-c4c(F)cccc4F)nn23)C[C@H]1N`
[out] 71 µL/min/mg

[in] Value lookup for microsomal CLint at 1 µM; key = `CN[C@H]1CCCN(c2ccncc2Nc2ncc3ccc(-c4c(F)cccc4F)nn23)C1`
[out] 66 µL/min/mg

[in] Value lookup for microsomal CLint at 1 µM; key = `C[C@@H]1CC[C@H](N)CN1c1ccncc1Nc1ncc2ccc(-c3c(F)cccc3F)nn12`
[out] 203 µL/min/mg

[in] Value lookup for microsomal CLint at 1 µM; key = `N[C@H]1CCCN(c2ccncc2Nc2ncc3ccc(-c4nccs4)nn23)C1`
[out] 27 µL/min/mg

[in] Value lookup for microsomal CLint at 1 µM; key = `C[C@H]1C[C@H](N)CN(c2ccncc2Nc2ncc3ccc(-c4c(F)cccc4F)nn23)C1`
[out] 111 µL/min/mg

[in] Value lookup for microsomal CLint at 1 µM; key = `N[C@H]1CCCN(c2ccncc2Nc2ncc3ccc(-c4ccccc4F)nn23)C1`
[out] 48 µL/min/mg

[in] Value lookup for microsomal CLint at 1 µM; key = `N[C@H]1CCCN(c2ccncc2Nc2ncc3ccc(-c4ccc(F)cc4F)nn23)C1`
[out] 31 µL/min/mg

[in] Value lookup for microsomal CLint at 1 µM; key = `N[C@H]1CCCN(c2ccccc2Nc2ncc3ccc(-c4c(F)cccc4F)nn23)C1`
[out] 82 µL/min/mg

[in] Value lookup for microsomal CLint at 1 µM; key = N[C@H]1CCC[C@@H](c2ccncc2Nc2ncc3ccc(-c4c(F)cccc4F)nn23)C1 (racemic)
[out] < 10 µL/min/mg

[in] Value lookup for microsomal CLint at 1 µM; key = `N[C@H]1CCCN(c2ccncc2Nc2ncc3ccc(-c4ncccc4F)nn23)C1`
[out] 36 µL/min/mg

[in] Value lookup for microsomal CLint at 1 µM; key = `C[C@@H]1C[C@H](N)CN(c2ccncc2Nc2ncc3ccc(-c4c(F)cccc4F)nn23)C1`
[out] 69 µL/min/mg

[in] Value lookup for microsomal CLint at 1 µM; key = `N[C@H]1CCCN(c2ncncc2Nc2ncc3ccc(-c4c(F)cccc4F)nn23)C1`
[out] 28 µL/min/mg

[in] Value lookup for microsomal CLint at 1 µM; key = `N[C@H]1CCCN(c2ccncc2Nc2ncc3ccc(-c4ccc(Cl)cc4Cl)nn23)C1`
[out] 100 µL/min/mg

[in] Value lookup for microsomal CLint at 1 µM; key = `N[C@H]1CCCN(c2cnccc2Nc2ncc3ccc(-c4c(F)cccc4F)nn23)C1`
[out] 67 µL/min/mg

[in] Value lookup for microsomal CLint at 1 µM; key = C[C@]1(N)CCCN(c2ccncc2Nc2ncc3ccc(-c4c(F)cccc4F)nn23)C1 (racemic)
[out] 91 µL/min/mg

[in] Value lookup for microsomal CLint at 1 µM; key = `N[C@H]1CCCN(c2ccncc2Nc2ncc3ccc(-c4c(F)cccc4F)nn23)C1`
[out] 66 µL/min/mg

[in] Value lookup for microsomal CLint at 1 µM; key = `N[C@H]1CCCN(c2ccncc2Nc2ncc3ccc(-c4ccccn4)nn23)C1`
[out] < 10 µL/min/mg
